All figures here come from patent US20260242735A1.

# EXPERIMENTAL SYSTEM: human CD33 S97A (human, UniProt P20138 18-364)
# Sequence (P20138 18-364 S97A limits assumed): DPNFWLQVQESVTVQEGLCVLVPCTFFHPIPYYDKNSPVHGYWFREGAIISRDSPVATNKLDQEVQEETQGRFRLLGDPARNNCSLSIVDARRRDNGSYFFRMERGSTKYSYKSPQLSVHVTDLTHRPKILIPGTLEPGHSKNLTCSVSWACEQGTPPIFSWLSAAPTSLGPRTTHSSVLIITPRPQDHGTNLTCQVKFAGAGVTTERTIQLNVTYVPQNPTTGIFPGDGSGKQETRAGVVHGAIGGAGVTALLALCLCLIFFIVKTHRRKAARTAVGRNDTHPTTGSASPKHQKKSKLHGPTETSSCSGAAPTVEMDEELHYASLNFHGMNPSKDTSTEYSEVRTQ
# PROTOCOL DETAILS: flow cytometry on HEK293-T, alanine scan
List of Mean % WT Binding values.
Answer with a number only, understood to be in % WT binding.

Below are worked cases with known answers.
- Refmab #4 (antibody, V domains shown, The alanine scan used IgG or Fab) VH: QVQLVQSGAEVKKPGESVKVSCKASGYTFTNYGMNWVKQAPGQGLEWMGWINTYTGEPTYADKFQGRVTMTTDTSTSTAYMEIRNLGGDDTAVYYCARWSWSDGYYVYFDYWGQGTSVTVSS VL: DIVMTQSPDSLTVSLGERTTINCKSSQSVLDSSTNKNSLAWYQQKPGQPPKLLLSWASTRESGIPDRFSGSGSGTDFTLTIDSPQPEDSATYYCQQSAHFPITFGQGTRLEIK: 121
- Refmab #1 (antibody, V domains shown, The alanine scan used IgG or Fab; also called hP67.6) VH: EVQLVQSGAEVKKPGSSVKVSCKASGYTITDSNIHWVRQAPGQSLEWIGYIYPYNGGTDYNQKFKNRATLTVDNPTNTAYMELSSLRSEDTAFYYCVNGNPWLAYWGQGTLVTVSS VL: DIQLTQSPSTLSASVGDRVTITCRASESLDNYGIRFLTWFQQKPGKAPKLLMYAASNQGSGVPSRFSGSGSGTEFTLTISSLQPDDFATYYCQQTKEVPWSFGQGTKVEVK: 92.5

Enquiry: Please look up its Mean % WT Binding: Refmab #3 (antibody, V domains shown, The alanine scan used IgG or Fab) VH: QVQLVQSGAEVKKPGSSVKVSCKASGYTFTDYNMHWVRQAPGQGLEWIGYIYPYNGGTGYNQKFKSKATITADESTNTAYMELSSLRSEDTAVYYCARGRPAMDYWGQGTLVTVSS VL: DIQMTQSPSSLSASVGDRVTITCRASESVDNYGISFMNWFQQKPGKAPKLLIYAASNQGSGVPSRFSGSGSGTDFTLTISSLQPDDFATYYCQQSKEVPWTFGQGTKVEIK
Return: 90.4

Enquiry: Please look up its Mean % WT Binding: Refmab #2 (antibody, V domains shown, The alanine scan used IgG or Fab) VH: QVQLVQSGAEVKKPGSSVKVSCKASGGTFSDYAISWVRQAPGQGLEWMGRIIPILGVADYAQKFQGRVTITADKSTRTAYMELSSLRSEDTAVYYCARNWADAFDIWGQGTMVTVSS VL: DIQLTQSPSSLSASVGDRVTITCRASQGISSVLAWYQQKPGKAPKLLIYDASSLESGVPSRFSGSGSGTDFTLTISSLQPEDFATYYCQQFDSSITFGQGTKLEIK
Return: 132
